meta.source: ChEMBL document CHEMBL1131204

Exercise: for every item that follows, state its recorded pKi(uM).
Molecular target: Adenosine receptor A3 (Homo sapiens) (UniProt P0DMS8)
Sequence (whole entry): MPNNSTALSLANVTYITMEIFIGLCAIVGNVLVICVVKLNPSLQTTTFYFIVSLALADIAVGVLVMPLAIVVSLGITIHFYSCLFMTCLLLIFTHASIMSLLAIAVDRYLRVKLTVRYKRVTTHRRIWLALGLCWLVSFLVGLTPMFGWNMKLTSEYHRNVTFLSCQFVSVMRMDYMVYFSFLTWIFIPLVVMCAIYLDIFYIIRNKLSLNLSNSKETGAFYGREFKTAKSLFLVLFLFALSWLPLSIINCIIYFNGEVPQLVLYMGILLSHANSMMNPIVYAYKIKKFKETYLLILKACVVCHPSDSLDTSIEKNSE
Test: Ability to displace [125I]-AB-MECA binding from adenosine A3 receptor.

Reported pKi(uM), molecule CCOc1c2ccoc2cc2oc(/C=C/c3ccccc3)cc(=O)c12 : ____ -0.06

Endpoint output: pKi(uM) of CCOc1ccc(-c2oc3cc(OCC)cc(OCC)c3c(=O)c2OCC)c(OCC)c1 . Value? -0.86

Requested field: pKi(uM). Item: COc1c2ccoc2cc2oc(C)cc(=O)c12 -1.78

Field request: pKi(uM) | item: COc1ccc(-c2oc3cc(OC)cc(OC)c3c(=O)c2OC)cc1 -0.53

So what does the record say about pKi(uM) for O=C1CC(c2ccc(O)cc2)Oc2ccccc21 (centres undefined) ? -1.36

Using the record for CCOc1cc(O)c2c(=O)c(OCC)c(-c3ccccc3)oc2c1 , report its pKi(uM). 0.13

I have this molecule here, COc1c2ccoc2cc2oc(C=O)cc(=O)c12 , and I need its recorded pKi(uM). -1.95

What measured pKi(uM) goes with COc1c2ccoc2cc2oc(/C=C/c3ccccc3)cc(=O)c12 ? -0.92

Request the reported pKi(uM) associated with COc1ccc(-c2cc(=O)c3c(O)cc(C)cc3o2)cc1 -1.7

Record request: pKi(uM) value, item COC1(OC)Cc2oc(-c3ccc(O)cc3O)c(CC=C(C)C)c(=O)c2C(O)=C1/C=C/C(C)C -0.66

Can you look up the measured pKi(uM) of COc1c2ccoc2cc2oc(/C=N/c3ccccc3)cc(=O)c12 for me? -0.96

Name the reported pKi(uM) value associated with the molecule O=c1cc(-c2ccccc2)oc2ccccc12 -1.23

Could you share which pKi(uM) value was measured for Cc1ccc(-c2oc3ccc(Cl)cc3c(=O)c2Cl)c(C(C)C)c1 ? 0.25

Would you mind telling me what pKi(uM) value was observed for CC(=O)Oc1cc(OC(C)=O)c2c(=O)c(OC(C)=O)c(-c3ccccc3)oc2c1 ? -1.24

Form field: reported pKi(uM) of CCOc1c(-c2c(C)cc(C)cc2C)oc2ccc(Cl)cc2c1=O -0.72

Which pKi(uM) reading was recorded for the molecule O=C1CC(c2ccccc2O)Oc2ccccc21 (centres undefined) ? -0.78

Any idea what pKi(uM) was measured for O=C1CC(c2ccccc2)Oc2ccccc21 (centres undefined) ? -1.21

# lookup: pKi(uM) of CCOc1cc(OCC)c2c(=O)c(OCC)c(-c3ccccc3)oc2c1 0.44

Please look up its pKi(uM): COc1ccc(-c2cc(=O)c3c(OC)c(OC)c(OC)cc3o2)cc1 -0.65

pKi(uM) for O=c1c(O)c(-c2ccccc2)oc2cc(O)cc(O)c12 ? -0.23

I'd like to know its pKi(uM). The molecule in question is COc1cc2oc(-c3ccc(O)cc3)cc(=O)c2c(O)c1OC -0.5

State the recorded pKi(uM) for this entry: COc1ccc2oc(C#Cc3ccccc3)c(O)c(=O)c2c1 -1.38

I am curious: what pKi(uM) value has been reported for COc1cc(O)c2c(c1)OC(c1ccc(O)cc1)CC2=O (centres undefined) ? -0.53

Any idea what its pKi(uM) is? The molecule is COc1ccc2c(=O)c(O)c(-c3ccc(O)c(O)c3)oc2c1 -0.14
